# study_system: T1, hLAG-3-mFc融合蛋白 (human, UniProt P18627 23-450)
# T1 construct: range 1-450; no cleavage site is stated; also called hLAG-3-mFc重组蛋白; 人LAG-3-mFc重组蛋白; not shown: mouse Fc
# T1 sequence (looked up): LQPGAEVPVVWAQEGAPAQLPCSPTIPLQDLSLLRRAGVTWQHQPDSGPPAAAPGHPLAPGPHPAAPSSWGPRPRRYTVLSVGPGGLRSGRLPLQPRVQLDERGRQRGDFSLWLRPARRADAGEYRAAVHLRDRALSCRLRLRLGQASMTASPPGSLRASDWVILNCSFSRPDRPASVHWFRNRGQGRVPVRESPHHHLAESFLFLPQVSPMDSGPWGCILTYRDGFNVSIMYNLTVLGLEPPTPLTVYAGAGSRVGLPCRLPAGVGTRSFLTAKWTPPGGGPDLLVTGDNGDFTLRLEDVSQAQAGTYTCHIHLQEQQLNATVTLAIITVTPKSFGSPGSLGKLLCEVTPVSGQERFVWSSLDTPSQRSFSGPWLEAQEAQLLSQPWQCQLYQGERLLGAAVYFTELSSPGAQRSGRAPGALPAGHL
# method_description: FACS competition: blocking of hLAG-3-mFc (2 ug/ml) binding to HLA on 293/rhHLA cells

- binder: "ch7F1嵌合抗体 (antibody, human IgG4, V domains shown) VH: EVQLVESGPGLVAPSQSLSITCTVSGFSLTDYAVSWIRQPPGKGLEWLGVVWGDGSTNYHSALISRLIITRDNSKRQVFLKLNSLQTDDTATYYCAKGGGGMDYWGQGTSVTVSS VL: DIVLSQSPAILSASPGEKVTVTCRASSSVSYMHWFQQKPGSSPKPWIYATSNLASGVPVRFSGSGSGTSYSLTISRVEAEDAATYYCQHYNTNPPTWTFGGGSKLEIK"
  quantity_unit: "µg/mL"
  IC50: 11.5
- binder: "ch7F10嵌合抗体 (antibody, human IgG4, V domains shown) VH: EVKLMESGAELVKPGASVKLSCKVSGVNIKDDYMHWVKQRTEQGLEWIGRIDPEDVETKYDPKFQGKATITSDTSSNTGYLQLSSLTSEDTAVYYCARSFYSNYVNYFDQWGQGTTLTVSS VL: DIVMTQAPKSMSMSVGERVTLSCKASENVGTYVSWFQQKPEQSPKLLIYGASNRYTGVPDRFTGSGSATDFTLTISSVQAEDLADYHCGQSYSYPYTFGGGTKLEIK"
  quantity_unit: "µg/mL"
  IC50: 1.21
- binder: "ch4C8嵌合抗体 (antibody, human IgG4, V domains shown) VH: EVQLVESGGGLVKIGGSLKLSCAGSGFTFSNYAMSWVRQTPEKRLEWVATITYGTTYTFYSDNVKGRFTISRDNAKNNLSLQMSHLKSEDTAMYYCTRGEYGSSFAYWGQGTLVTVSA VL: DIVMTQSQKFMSTSVGDRVSITCKASQNVRTAVAWYQQKPGQSPKALIYLASNRHTGVPDRFTGSGSETDFTLTINNVQSEDLADYFCLQHWNYPLTFGGGTKLEIK"
  quantity_unit: "µg/mL"
  IC50: 1.28
- binder: "ch7C5嵌合抗体 (antibody, V domains shown) VH: EVQLQQSGAELARPGASVKLSCKASGYTFTSYGISWVKQRTGQGLEWIGEIYPRSDNTYYNGKFKGKATLTADKSSSTAYMELRSLTSEDSAVFFCARRAFYYYGSNYYAMDYWGQGTSVTVSS VL: DVLMTQTPLFLPVSLGDQASISCRSSQSIVHSNGDTYLEWYLRKPGQSPKLLIFKVSNRFSGVPDRFSGSGSGTDFTLKISRVEAEDLGVYYCFQGSHVPWTFGGGTKLEIK"
  quantity_unit: "µg/mL"
  IC50: 1.87
